Reference source: ChEMBL document CHEMBL4680077

- TEST NAME: Tmax in Sprague-Dawley rat at 1 mg/kg, po measured upto 24 hrs by LC-MS/MS analysis
- Format: ADME, organism-based
- PARTICULARS: in vivo
RECORDED ENDPOINT: Tmax (h)

{"columns": ["SAMPLE SMILES", "RECORDED ENDPOINT", "NUMERIC READOUT"],
 "data": [
  ["CCCCN(C)C(=O)CCCCOc1ccc([C@H]2c3ccc(OC)cc3OC(C)(C)[C@@H]2c2ccccc2)cc1", "Tmax", 1.5]
]}

---

- TEST NAME: Acute toxicity in Swiss albino mouse assessed as WBC count per thousand/mm3 at 5 mg/kg, po measured after 7 days (reference value: 6.84 +/- 0.83 /mm3)
- Type: organism-based
- PARTICULARS: in vivo, 168 h, time 7 day
RECORDED ENDPOINT: Activity

{"columns": ["SAMPLE SMILES", "RECORDED ENDPOINT", "RESULT"],
 "data": [
  ["CCCCN(C)C(=O)CCCCOc1ccc([C@H]2c3ccc(OC)cc3OC(C)(C)[C@@H]2c2ccccc2)cc1", "Activity", "6.1 10^3/mm3"]
]}

---

- TEST NAME: AUC (0 to 24 hrs) in Sprague-Dawley rat at 1 mg/kg, po measured upto 24 hrs by LC-MS/MS analysis
- Type: ADME, organism-based
- Design: route oral, dose 1 mg/kg, time <=24
- PARTICULARS: in vivo

{"columns": ["SAMPLE SMILES", "AUC(0-t) / ng·h/mL"],
 "data": [
  ["CCCCN(C)C(=O)CCCCOc1ccc([C@H]2c3ccc(OC)cc3OC(C)(C)[C@@H]2c2ccccc2)cc1", 114]
]}

---

- TEST NAME: Volume of distribution in Sprague-Dawley rat at 1 mg/kg, iv measured upto 24 hrs by LC-MS/MS analysis
- Assay type: ADME, organism-based
- PARTICULARS: in vivo
RECORDED ENDPOINT: Vd (L/kg)

{"columns": ["SAMPLE SMILES", "RECORDED ENDPOINT", "NUMERIC READOUT"],
 "data": [
  ["CCCCN(C)C(=O)CCCCOc1ccc([C@H]2c3ccc(OC)cc3OC(C)(C)[C@@H]2c2ccccc2)cc1", "Vd", 5.61]
]}

---

- TEST NAME: Half life in Sprague-Dawley rat at 1 mg/kg, po measured upto 24 hrs by LC-MS/MS analysis
- Type: ADME, organism-based
- PARTICULARS: in vivo
RECORDED ENDPOINT: half-life (h)

{"columns": ["SAMPLE SMILES", "NUMERIC READOUT"],
 "data": [
  ["CCCCN(C)C(=O)CCCCOc1ccc([C@H]2c3ccc(OC)cc3OC(C)(C)[C@@H]2c2ccccc2)cc1", 3.62]
]}

---

- TEST NAME: Elimination rate constant in Sprague-Dawley rat at 1 mg/kg, po measured upto 24 hrs by LC-MS/MS analysis
- Format: ADME, organism-based
- PARTICULARS: in vivo

{"columns": ["SAMPLE SMILES", "RESULT UNITS", "k el at 24 h"],
 "data": [
  ["CCCCN(C)C(=O)CCCCOc1ccc([C@H]2c3ccc(OC)cc3OC(C)(C)[C@@H]2c2ccccc2)cc1", "s⁻¹", "5.39e-05"]
]}

---

- TEST NAME: Oral bioavailability in Sprague-Dawley rat at 1 mg/kg measured upto 24 hrs by LC-MS/MS analysis
- Type: ADME, organism-based
- PARTICULARS: in vivo

{"columns": ["SAMPLE SMILES", "RESULT UNITS", "bioavailability"],
 "data": [
  ["CCCCN(C)C(=O)CCCCOc1ccc([C@H]2c3ccc(OC)cc3OC(C)(C)[C@@H]2c2ccccc2)cc1", "%", 13.2]
]}
